# measured_target: TEAD1 in SK-HEP1 cells (Homo sapiens (Human), UniProt P28347)
# Sequence (P28347 whole entry): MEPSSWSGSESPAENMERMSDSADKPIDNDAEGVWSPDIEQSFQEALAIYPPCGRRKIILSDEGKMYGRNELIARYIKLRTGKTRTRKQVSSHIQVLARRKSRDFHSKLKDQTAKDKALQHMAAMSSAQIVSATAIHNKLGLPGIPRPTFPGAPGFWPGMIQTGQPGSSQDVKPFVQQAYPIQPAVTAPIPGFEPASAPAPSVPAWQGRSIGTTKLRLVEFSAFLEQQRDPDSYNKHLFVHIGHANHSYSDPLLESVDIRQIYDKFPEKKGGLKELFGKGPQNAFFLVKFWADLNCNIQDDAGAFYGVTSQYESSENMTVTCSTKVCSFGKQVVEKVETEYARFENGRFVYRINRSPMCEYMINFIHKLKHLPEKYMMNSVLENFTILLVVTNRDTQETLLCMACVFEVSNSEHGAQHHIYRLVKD
# test_summary: TEAD degradation in SK-HEP1 cell line (immunofluorescence)
# Type: cell-based
# settings: 24 hours, ranges, read-out: DC50 SK-HEP1
test_readout: DC50

Some molecules with known DC50 results, for comparison:
- Cn1cc2c3cc(C(=O)NCCOCCOCCOCCOCCNC(=O)[C@]45CCC(C)(C)C[C@H]4[C@H]4C(=O)C=C6[C@@]7(C)C=C(C#N)C(=O)C(C)(C)[C@@H]7CC[C@@]6(C)[C@]4(C)CC5)ccc3n(-c3ccc(C(F)(F)F)cc3)c2n1: 100 to 1000 nM
- Cn1cc2c3cc(C(=O)NCCOCCOCCOCCOCCOCCNc4cccc5c4C(=O)N(C4CCC(=O)NC4=O)C5=O)ccc3n(-c3ccc(C(F)(F)F)cc3)c2n1 (stereo not shown): < 100 nM
- Cc1ncsc1-c1ccc(CNC(=O)[C@H]2C[C@H](O)CN2C(=O)[C@H](NC(=O)COCCOCCOCCOCCOCCNC(=O)c2ccc3c(c2)c2cn(C)nc2n3-c2ccc(C(F)(F)F)cc2)C(C)(C)C)cc1: 100 to 1000 nM
- Cc1ccc2c(c1)c1cc(C(=O)NCCOCCOCCOCCOCCNc3cccc4c3C(=O)N(C3CCC(=O)NC3=O)C4=O)ccc1n2-c1ccc(C(F)(F)F)cc1 (stereo not shown): 100 to 1000 nM
- Cc1ncsc1-c1ccc(CNC(=O)[C@@H]2C[C@@H](O)CN2C(=O)[C@@H](NC(=O)CCCCCc2cn(CCCCCCCNC(=O)c3ccc4c(c3)c3cn(C)nc3n4-c3ccc(C(F)(F)F)cc3)nn2)C(C)(C)C)cc1: 100 to 1000 nM
- CC(=O)O[C@@H]1C[C@@H](C(=O)N[C@@H](C)c2ccc(-c3scnc3C)cc2)N(C(=O)[C@@H](NC(=O)CCCCCC(=O)NCCOCCOCCNC(=O)c2ccc3c(c2)c2cn(C)nc2n3-c2ccc(C(F)(F)F)cc2)C(C)(C)C)C1: 100 to 1000 nM

State recorded DC50 for all listed molecules.
1. CN(CCOCCOCCOCCOCCNC(=O)c1ccc2c(c1)c1cn(C)nc1n2-c1ccc(C(F)(F)F)cc1)c1cccc2c1C(=O)N(C1CCC(=O)NC1=O)C2=O (stereo not shown)
2. Cn1nc2c3cc(C(=O)NCCOCCOCCOCCOCCNc4cccc5c4C(=O)N(C4CCC(=O)NC4=O)C5=O)ccc3n(-c3ccc(C(F)(F)F)cc3)c2n1 (stereo not shown)
3. Cc1ncsc1-c1ccc(CNC(=O)[C@@H]2C[C@@H](O)CN2C(=O)[C@@H](NC(=O)COCCCOCCOCCNC(=O)c2ccc3c(c2)c2cn(C)nc2n3-c2ccc(C(F)(F)F)cc2)C(C)(C)C)cc1
4. Cn1cc2c3cc(C(=O)NCCOCCOCCOCCOCCNc4cccc5c4CN(C4CCC(=O)NC4=O)C5=O)ccc3n(-c3ccc(C(F)(F)F)cc3)c2n1 (stereo not shown)

Response given:
["< 100 nM", "100 to 1000 nM", "100 to 1000 nM", "9000 to 30000 nM"]

###

# measured_target: TEAD1 in SK-HEP1 cells (Homo sapiens (Human), UniProt P28347)
# test_summary: TEAD degradation in SK-HEP1 cell line (immunofluorescence)
# Assay type: cell-based
# settings: 24 h incubation, read-out: DC50 SK-HEP1 24 h
What log10(DC50) was measured for each of the following?
Hi team, quick reminder: these entries are log10 of DC50 (nM).

State recorded log10(DC50) for all listed molecules.
1. Cn1cc2c3cc(C(=O)NCCOCCOCCNC(=O)COc4ccc5c(c4)C(=O)N(C4CCC(=O)NC4=O)C5=O)ccc3n(-c3ccc(C(F)(F)F)cc3)c2n1 (centres unmarked) [Compound 7]
2. Cn1cc2c3cc(C(=O)NCCOCCOCCOCCOCCNC(=O)[C@]45CCC(C)(C)C[C@H]4[C@H]4C(=O)C=C6[C@@]7(C)C=C(C#N)C(=O)C(C)(C)[C@@H]7CC[C@@]6(C)[C@]4(C)CC5)ccc3n(-c3ccc(C(F)(F)F)cc3)c2n1 [Compound 33]
3. Cn1cc2c3cc(C(=O)NCCOCCOCCNC(=O)COc4cccc5c4C(=O)N(C4CCC(=O)NC4=O)C5=O)ccc3n(-c3ccc(C(F)(F)F)cc3)c2n1 (centres unmarked) [Compound 5]
4. Cn1cc2c3cc(C(=O)NCCOCCOCCOCCOCCOc4cccc5c4C(=O)N(C4CCC(=O)NC4=O)C5=O)ccc3n(-c3ccc(C(F)(F)F)cc3)c2n1 (centres unmarked) [Compound 16]
5. Cc1ncsc1-c1ccc([C@H](C)NC(=O)[C@@H]2C[C@@H](O)CN2C(=O)[C@@H](NC(=O)CCCCCC(=O)NCCOCCOCCNC(=O)c2ccc3c(c2)c2cn(C)nc2n3-c2ccc(C(F)(F)F)cc2)C(C)(C)C)cc1 [Compound 24]

Response given:
1: 3.38; 2: 2.81; 3: 4.48; 4: 2.40; 5: 2.85

###

# measured_target: TEAD1 in SK-HEP1 cells (Homo sapiens (Human))
# test_summary: TEAD degradation in SK-HEP1 cell line (immunofluorescence)
# Assay type: cell-based
# settings: 16 h incubation, read-out: DC50 SK-HEP1 16 h
What DC50 was measured for each of the following?
One number for each entry, in µM.

• Cc1ncsc1-c1ccc([C@H](C)NC(=O)[C@@H]2C[C@@H](O)CN2C(=O)[C@@H](NC(=O)CCCCCC(=O)NCCOCCOCCNC(=O)c2ccc3c(c2)c2cn(C)nc2n3-c2ccc(C(F)(F)F)cc2)C(C)(C)C)cc1 = 0.7

State recorded DC50 for all listed compounds.
1. CC(=O)O[C@@H]1C[C@@H](C(=O)N[C@@H](C)c2ccc(-c3scnc3C)cc2)N(C(=O)[C@@H](NC(=O)CCCCCC(=O)NCCOCCOCCNC(=O)c2ccc3c(c2)c2cn(C)nc2n3-c2ccc(C(F)(F)F)cc2)C(C)(C)C)C1
2. Cc1ncsc1-c1ccc(CNC(=O)[C@@H]2C[C@@H](O)CN2C(=O)[C@@H](NC(=O)CCCCCC(=O)NCCOCCOCCNC(=O)c2ccc3c(c2)c2cn(C)nc2n3-c2ccc(C(F)(F)F)cc2)C(C)(C)C)cc1
3. Cc1ncsc1-c1ccc([C@H](C)NC(=O)[C@@H]2C[C@@H](O)CN2C(=O)[C@@H](NC(=O)CCCCCc2cn(CCCCCCCNC(=O)c3ccc4c(c3)c3cn(C)nc3n4-c3ccc(C(F)(F)F)cc3)nn2)C(C)(C)C)cc1

Response given:
1. 1
2. 2
3. 0.22

###

# measured_target: TEAD1 in NCI-H226 cells (Homo sapiens (Human))
# Sequence (P28347 whole entry): as above
# test_summary: TEAD degradation in NCI-H226 cell line (immunofluorescence)
# Type: cell-based
# settings: 24 h incubation, read-out: DC50 NCI-H226 24 h
test_readout: DC50 (nM)
Numbers only, in nM.

• Cn1cc2c3cc(C(=O)NCCOCCOCCOCCOCCNc4cccc5c4C(=O)N(C4CCC(=O)NC4=O)C5=O)ccc3n(-c3ccc(C(F)(F)F)cc3)c2n1 (stereo not drawn) = 90
• Cc1ncsc1-c1ccc(CNC(=O)[C@@H]2C[C@@H](O)CN2C(=O)[C@@H](NC(=O)CCCCCCCCCNC(=O)c2ccc3c(c2)c2cn(C)nc2n3-c2ccc(C(F)(F)F)cc2)C(C)(C)C)cc1 = 300

Challenge: Provide only the value of recorded DC50 for Cn1cc2c3cc(C(=O)NCCOCCOCCNC(=O)CCCCNc4cccc5c4CN(C4CCC(=O)NC4=O)C5=O)ccc3n(-c3ccc(C(F)(F)F)cc3)c2n1 (stereo not drawn)
Response given: 30000

###

What DC50 was measured for each of the following?
# measured_target: TEAD1 in SK-HEP1 cells (Homo sapiens (Human), UniProt P28347)
# test_summary: TEAD degradation in SK-HEP1 cell line (immunofluorescence)
# Assay type: cell-based
# settings: 24 hours, ranges, read-out: DC50 SK-HEP1

State recorded DC50 for all listed compounds.
1. Cc1ncsc1-c1ccc([C@H](C)NC(=O)[C@@H]2C[C@@H](O)CN2C(=O)[C@@H](NC(=O)CCCCCc2cn(CCCCCCCNC(=O)c3ccc4c(c3)c3cn(C)nc3n4-c3ccc(C(F)(F)F)cc3)nn2)C(C)(C)C)cc1
2. Cn1cc2c3cc(C(=O)NCCOCCOCCNC(=O)CCCCNc4cccc5c4CN(C4CCC(=O)NC4=O)C5=O)ccc3n(-c3ccc(C(F)(F)F)cc3)c2n1 (centres unmarked)
3. Cc1ncsc1-c1ccc([C@H](C)NC(=O)[C@@H]2C[C@@H](O)CN2C(=O)[C@@H](NC(=O)CCCCCc2cnnn2CCCCCCCNC(=O)c2ccc3c(c2)c2cn(C)nc2n3-c2ccc(C(F)(F)F)cc2)C(C)(C)C)cc1
4. Cn1nc2c3cc(C(=O)NCCOCCOCCOCCOCCNc4cccc5c4C(=O)N(C4CCC(=O)NC4=O)C5=O)ccc3n([C@H]3CC[C@H](C(F)(F)F)CC3)c2n1 (some centres unmarked)
5. Cn1cc2c3cc(C(=O)NCC#Cc4ccc(N5CCN(CCCC(=O)Nc6ccc7c(c6)CN(C6CCC(=O)NC6=O)C7=O)CC5)nc4)ccc3n(-c3ccc(C(F)(F)F)cc3)c2n1 (centres unmarked)

Response given:
["100 to 1000 nM", "1000 to 3000 nM", "100 to 1000 nM", "100 to 1000 nM", "< 100 nM"]
